tested target: human activated kallikrein enzyme (Homo sapiens)
Sequence (P03952 391-638 limits assumed): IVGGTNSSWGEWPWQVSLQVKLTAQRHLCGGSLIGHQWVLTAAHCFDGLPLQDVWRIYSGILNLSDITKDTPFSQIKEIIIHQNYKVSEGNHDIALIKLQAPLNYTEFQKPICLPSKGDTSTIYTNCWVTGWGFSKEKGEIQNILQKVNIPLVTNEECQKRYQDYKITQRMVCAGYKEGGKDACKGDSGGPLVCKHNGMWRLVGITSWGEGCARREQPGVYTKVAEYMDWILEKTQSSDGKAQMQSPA
Sequence (P03952 20-390 partner limits assumed): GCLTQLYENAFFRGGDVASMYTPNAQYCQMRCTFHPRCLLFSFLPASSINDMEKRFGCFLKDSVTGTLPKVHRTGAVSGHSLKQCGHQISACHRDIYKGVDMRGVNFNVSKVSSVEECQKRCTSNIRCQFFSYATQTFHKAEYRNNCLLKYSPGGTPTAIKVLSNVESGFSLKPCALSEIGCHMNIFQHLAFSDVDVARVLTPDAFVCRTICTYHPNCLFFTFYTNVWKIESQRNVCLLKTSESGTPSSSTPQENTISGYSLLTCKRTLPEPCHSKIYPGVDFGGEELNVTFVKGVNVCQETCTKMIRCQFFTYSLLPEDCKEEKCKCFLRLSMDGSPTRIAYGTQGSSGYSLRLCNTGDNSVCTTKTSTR
assay overview: Inhibition of activated plasma kallikrein, fluorogenic peptide substrate (PFR-AMC) assay, 500 pM enzyme format
Format: biochemical
settings: 500 pM activated kallikrein, 300 uM PFR-AMC, 30 min preincubation, 10 min reaction, room temperature; read-out: Primary Dose Response Assay: Average EC50
measurement kind: EC50

Consider the reported EC50 for these compounds:
INSERT INTO results (compound, tested_target, result) VALUES
  ('COc1cc(OCc2cn3cc(C4CC4)cc(N4CC(=O)N(C)C4=O)c3n2)cc2nc([C@H]3C[C@@H]3c3nccc(C)n3)ccc12 (racemic)', 'human activated kallikrein enzyme (Homo sapiens)', '10 to 100 nM'),
  ('Cc1ccnc([C@H]2C[C@@H]2c2ccc3cccc(NCc4cn5cc(C6CC6)cc(N6CC(=O)N(C)C6=O)c5n4)c3n2)n1 (racemic)', 'human activated kallikrein enzyme (Homo sapiens)', '> 6500 nM');

(Q) Value lookup for EC50; key = Cc1ccnc([C@H]2C[C@@H]2c2ccc3ncc(NCc4cn5cc(C6CC6)cc(N6CC(=O)N(C)C6=O)c5n4)cc3n2)n1 (racemic)
(A) 1 to 10 nM

(Q) # iterate: Cc1ccnc([C@H]2C[C@@H]2c2nc(=O)c3ccc(NCc4cn5cc(C6CC6)cc(N6CC(=O)N(C)C6=O)c5n4)cc3[nH]2)n1 (racemic)
(A) ≤ 1 nM

(Q) Could you do the same for Cc1ccnc([C@H]2C[C@@H]2c2cc(-n3ccnc3)c3ccc(NCc4cn5cc(C6CC6)cc(N6CC(=O)N(C)C6=O)c5n4)cc3n2)n1 (racemic) , please?
(A) ≤ 1 nM

(Q) Similarly, Cc1ccnc([C@H]2C[C@@H]2c2ncc3ccc(NCc4cn5cc(C6CC6)cc(N6CC(=O)N(C)C6=O)c5n4)cc3n2)n1 (racemic) ?
(A) 1 to 10 nM
